biological target: Kallikrein-4 (Homo sapiens); experiment: Inhibition of KLK4 (unknown origin) expressed in Sf9 cells at 25 nM using FVQRpNA substrate by spectrophotometry method
Sequence (Q9Y5K2 whole entry): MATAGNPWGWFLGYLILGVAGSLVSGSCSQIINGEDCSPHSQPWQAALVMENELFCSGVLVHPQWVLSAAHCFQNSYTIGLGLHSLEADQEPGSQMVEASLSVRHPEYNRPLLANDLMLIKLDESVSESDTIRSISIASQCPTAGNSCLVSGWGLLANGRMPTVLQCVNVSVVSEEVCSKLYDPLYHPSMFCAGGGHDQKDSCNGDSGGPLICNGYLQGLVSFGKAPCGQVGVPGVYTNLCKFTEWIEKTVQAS
Active and inactive are the calls of the source. No cut-off for these calls is given here. Bridge positions count the residues as written; N and C are the ends. Peptide text beside a SMILES is read from it.

molecule	inhibition
CC[C@H](C)[C@@H]1NC(=O)[C@@H]2CCCN2C(=O)[C@@H]2CCCN2C(=O)[C@H](C(C)C)NC(=O)[C@H](CO)NC(=O)[C@H](CCCNC(=N)N)NC(=O)[C@H]([C@@H](C)O)NC(=O)[C@@H]2CSSC[C@H](NC1=O)C(=O)N[C@@H](CC(N)=O)C(=O)N1CCC[C@H]1C(=O)N[C@@H](CC(N)=O)C(=O)NCC(=O)N[C@@H]([C@@H](C)O)C(=O)N2 (cyclo(CNPNGTCTRSVPPI); disulfide 1-7)	92%
CC[C@H](C)[C@@H]1NC(=O)[C@@H]2CCCN2C(=O)[C@@H]2CCCN2C(=O)[C@H]([C@@H](C)CC)NC(=O)[C@H](CO)NC(=O)[C@H](CCCNC(=N)N)NC(=O)[C@H]([C@@H](C)O)NC(=O)[C@@H]2CSSC[C@H](NC1=O)C(=O)N[C@@H](CC(N)=O)C(=O)N1CCC[C@H]1C(=O)N[C@@H](CC(N)=O)C(=O)NCC(=O)N[C@@H]([C@@H](C)O)C(=O)N2 (cyclo(CNPNGTCTRSIPPI); disulfide 1-7)	Active
CC[C@H](C)[C@@H]1NC(=O)[C@@H]2CCCN2C(=O)[C@@H]2CCCN2C(=O)[C@H](CCCNC(=N)N)NC(=O)[C@H](CO)NC(=O)[C@H](CCCNC(=N)N)NC(=O)[C@H]([C@@H](C)O)NC(=O)[C@@H]2CSSC[C@H](NC1=O)C(=O)N[C@@H](CC(N)=O)C(=O)N1CCC[C@H]1C(=O)N[C@@H](CC(N)=O)C(=O)NCC(=O)N[C@@H]([C@@H](C)O)C(=O)N2 (cyclo(CNPNGTCTRSRPPI); disulfide 1-7)	Active

* * *

biological target: Kallikrein-7 (Homo sapiens, UniProt P49862); assay: Inhibition of KLK7 (unknown origin) expressed in Pichia pastoris X33 at 200 nM using KHLY-pNA substrate by spectrophotometry method
Sequence (P49862 30-253 limits assumed): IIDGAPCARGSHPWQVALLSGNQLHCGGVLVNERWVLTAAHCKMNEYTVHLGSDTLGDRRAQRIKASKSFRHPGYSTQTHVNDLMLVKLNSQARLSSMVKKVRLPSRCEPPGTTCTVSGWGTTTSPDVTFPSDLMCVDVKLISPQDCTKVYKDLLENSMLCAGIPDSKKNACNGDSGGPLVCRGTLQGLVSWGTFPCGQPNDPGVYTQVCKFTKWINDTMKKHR
Bridge positions count the residues as written; N and C are the ends. Peptide text beside a SMILES is read from it.
property name: inhibition (%)

molecule	target under test	property name	units	obs value
CC[C@H](C)[C@@H]1NC(=O)[C@@H]2CCCN2C(=O)[C@@H]2CCCN2C(=O)[C@H](CC(N)=O)NC(=O)[C@H](CO)NC(=O)[C@H](CCCNC(=N)N)NC(=O)[C@H]([C@@H](C)O)NC(=O)[C@@H]2CSSC[C@H](NC1=O)C(=O)N[C@@H](CC(N)=O)C(=O)N1CCC[C@H]1C(=O)N[C@@H](CC(N)=O)C(=O)NCC(=O)N[C@@H]([C@@H](C)O)C(=O)N2 (cyclo(CNPNGTCTRSNPPI); disulfide 1-7)	Kallikrein-7 (Homo sapiens, UniProt P49862)	inhibition	%	97

* * *

Target: Suppressor of tumorigenicity 14 protein (Homo sapiens) (UniProt Q9Y5Y6)
Sequence (whole entry): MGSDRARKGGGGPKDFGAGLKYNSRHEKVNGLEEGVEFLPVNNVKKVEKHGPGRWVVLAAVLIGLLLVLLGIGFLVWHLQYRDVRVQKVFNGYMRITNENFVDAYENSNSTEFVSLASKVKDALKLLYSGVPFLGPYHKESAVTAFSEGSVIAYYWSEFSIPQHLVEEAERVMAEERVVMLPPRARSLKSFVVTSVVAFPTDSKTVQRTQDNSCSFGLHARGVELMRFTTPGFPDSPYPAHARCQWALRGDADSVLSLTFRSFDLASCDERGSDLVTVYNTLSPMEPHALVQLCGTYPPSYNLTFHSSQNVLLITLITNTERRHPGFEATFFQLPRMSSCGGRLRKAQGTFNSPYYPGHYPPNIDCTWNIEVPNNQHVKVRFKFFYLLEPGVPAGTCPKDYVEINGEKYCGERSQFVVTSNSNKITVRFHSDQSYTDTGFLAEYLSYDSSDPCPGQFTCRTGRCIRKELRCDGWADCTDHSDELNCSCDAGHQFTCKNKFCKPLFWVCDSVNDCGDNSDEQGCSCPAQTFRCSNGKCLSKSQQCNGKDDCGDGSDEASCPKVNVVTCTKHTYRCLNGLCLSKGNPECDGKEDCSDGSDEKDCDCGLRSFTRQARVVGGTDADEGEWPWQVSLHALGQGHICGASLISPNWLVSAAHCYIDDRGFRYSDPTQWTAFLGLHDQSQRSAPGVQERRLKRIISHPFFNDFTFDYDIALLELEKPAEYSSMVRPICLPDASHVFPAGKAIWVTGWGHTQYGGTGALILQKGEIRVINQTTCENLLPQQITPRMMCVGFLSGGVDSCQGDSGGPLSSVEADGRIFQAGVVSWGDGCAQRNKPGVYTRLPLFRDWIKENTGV
Assay: Inhibition of matriptase (unknown origin) at 10 uM using Ac-RQFRpNA substrate by spectrophotometry method
Bridge positions count the residues as written; N and C are the ends. Peptide text beside a SMILES is read from it.

compound	target under test	units	inhibition
CC[C@H](C)[C@@H]1NC(=O)[C@@H]2CCCN2C(=O)[C@@H]2CCCN2C(=O)[C@H](C(C)C)NC(=O)[C@H](CO)NC(=O)[C@H](CCCNC(=N)N)NC(=O)[C@H]([C@@H](C)O)NC(=O)[C@@H]2CSSC[C@H](NC1=O)C(=O)N[C@@H](CC(N)=O)C(=O)N1CCC[C@H]1C(=O)N[C@@H](CC(N)=O)C(=O)NCC(=O)N[C@@H]([C@@H](C)O)C(=O)N2 (cyclo(CNPNGTCTRSVPPI); disulfide 1-7)	Suppressor of tumorigenicity 14 protein (Homo sapiens) (UniProt Q9Y5Y6)	%	54
CC[C@H](C)[C@@H]1NC(=O)[C@@H]2CCCN2C(=O)[C@@H]2CCCN2C(=O)[C@H](CC(=O)O)NC(=O)[C@H](CO)NC(=O)[C@H](CCCNC(=N)N)NC(=O)[C@H]([C@@H](C)O)NC(=O)[C@@H]2CSSC[C@H](NC1=O)C(=O)N[C@@H](CC(N)=O)C(=O)N1CCC[C@H]1C(=O)N[C@@H](CC(N)=O)C(=O)NCC(=O)N[C@@H]([C@@H](C)O)C(=O)N2 (cyclo(CNPNGTCTRSDPPI); disulfide 1-7)	Suppressor of tumorigenicity 14 protein (Homo sapiens) (UniProt Q9Y5Y6)	%	29
CC[C@H](C)[C@@H]1NC(=O)[C@@H]2CCCN2C(=O)[C@@H]2CCCN2C(=O)[C@H](CC(N)=O)NC(=O)[C@H](CO)NC(=O)[C@H](CCCNC(=N)N)NC(=O)[C@H]([C@@H](C)O)NC(=O)[C@@H]2CSSC[C@H](NC1=O)C(=O)N[C@@H](CC(N)=O)C(=O)N1CCC[C@H]1C(=O)N[C@@H](CC(N)=O)C(=O)NCC(=O)N[C@@H]([C@@H](C)O)C(=O)N2 (cyclo(CNPNGTCTRSNPPI); disulfide 1-7)	Suppressor of tumorigenicity 14 protein (Homo sapiens) (UniProt Q9Y5Y6)	%	37
CC[C@H](C)[C@@H]1NC(=O)[C@@H]2CCCN2C(=O)[C@@H]2CCCN2C(=O)[C@H]([C@@H](C)CC)NC(=O)[C@H](CO)NC(=O)[C@H](CCCNC(=N)N)NC(=O)[C@H]([C@@H](C)O)NC(=O)[C@@H]2CSSC[C@H](NC1=O)C(=O)N[C@@H](CC(N)=O)C(=O)N1CCC[C@H]1C(=O)N[C@@H](CC(N)=O)C(=O)NCC(=O)N[C@@H]([C@@H](C)O)C(=O)N2 (cyclo(CNPNGTCTRSIPPI); disulfide 1-7)	Suppressor of tumorigenicity 14 protein (Homo sapiens) (UniProt Q9Y5Y6)	%	41

* * *

molecular target: Trypsin (Homo sapiens, UniProt P07477+P07478+P35030); test: Inhibition of beta-trypsin (unknown origin) using Bz-FVRpNA substrate by spectrophotometry method; format: protein assay
Bridge positions count the residues as written; N and C are the ends. Peptide text beside a SMILES is read from it.
property name: log10 Ki (log10 of the value in nM)

molecule	obs value
CC[C@H](C)[C@@H]1NC(=O)[C@@H]2CCCN2C(=O)[C@@H]2CCCN2C(=O)[C@H](Cc2ccc(O)cc2)NC(=O)[C@H](CO)NC(=O)[C@H](CCCNC(=N)N)NC(=O)[C@H]([C@@H](C)O)NC(=O)[C@@H]2CSSC[C@H](NC1=O)C(=O)N[C@@H](Cc1ccccc1)C(=O)N1CCC[C@H]1C(=O)N[C@H](C(=O)O)CC(=O)NCC(=O)N[C@@H](CCCNC(=N)N)C(=O)N2 (GRCTRSYPPICFPD-OH; disulfide 3-11; lactam N-14)	-0.80
C[C@@H](O)[C@@H]1NC(=O)[C@@H](NC(=O)[C@H](CCCNC(=N)N)NC(=O)CN)CSSC[C@@H](C(=O)N[C@@H](Cc2cnc[nH]2)C(=O)O)NC(=O)[C@H](CCCNC(=N)N)NC(=O)[C@@H]2CCCN2C(=O)[C@@H]2CCCN2C(=O)[C@H](CC(=O)O)NC(=O)[C@H](CO)NC(=O)[C@H](CCCCN)NC1=O (H-GRCTKSDPPRCH-OH; disulfide 3-11)	3.45
CC[C@H](C)[C@@H]1NC(=O)[C@@H]2CSSC[C@H](NC(=O)[C@H]([C@@H](C)CC)NC(=O)[C@@H]3CCCN3C(=O)[C@@H]3CCCN3C(=O)[C@H](CCCCN)NC(=O)[C@H](CO)NC(=O)[C@H](CCCNC(=N)N)NC1=O)C(=O)N[C@@H](CC(N)=O)C(=O)N1CCC[C@H]1C(=O)N[C@@H](CC(N)=O)C(=O)NCC(=O)N[C@@H](Cc1c[nH]c3ccccc13)C(=O)N2 (cyclo(CIRSKPPICNPNGW); disulfide 1-9)	3.51
CC[C@H](C)[C@@H]1NC(=O)[C@@H]2CCCN2C(=O)[C@@H]2CCCN2C(=O)[C@H]([C@@H](C)CC)NC(=O)[C@H](CO)NC(=O)[C@H](CCCNC(=N)N)NC(=O)[C@H]([C@@H](C)O)NC(=O)[C@@H]2CSSC[C@H](NC1=O)C(=O)N[C@@H](Cc1ccccc1)C(=O)N1CCC[C@H]1C(=O)N[C@H](C(=O)O)CC(=O)NCC(=O)N[C@@H](CCCNC(=N)N)C(=O)N2 (GRCTRSIPPICFPD-OH; disulfide 3-11; lactam N-14)	-1.52
CC[C@H](C)[C@@H]1NC(=O)[C@@H]2CSSC[C@H](NC(=O)[C@H]([C@@H](C)CC)NC(=O)[C@@H]3CCCN3C(=O)[C@@H]3CCCN3C(=O)[C@H]([C@@H](C)CC)NC(=O)[C@H](CO)NC(=O)[C@H](CCCNC(=N)N)NC1=O)C(=O)N[C@@H](CC(N)=O)C(=O)N1CCC[C@H]1C(=O)N[C@@H](CC(N)=O)C(=O)NCC(=O)N[C@@H](Cc1c[nH]c3ccccc13)C(=O)N2 (cyclo(CIRSIPPICNPNGW); disulfide 1-9)	2.58

Values were extracted from ChEMBL document CHEMBL3621201.
